Each recorded value in this set is attributed to patent US11098055B2.

- Test system: Botrtyis cinerea (Bc)
- experiment: Growth inhibition assay of fungal pathogens
- Type: cell-based
- assayConditions: 48 h, Table 4b, read-out: Concentration at 90% Inhibition Bc
compounds and their reported IC90

Below, 4 compounds whose answers are already recorded.
1) CCOC(=O)c1sc2c(c1C)c(=O)n(C(C)(C)C(=O)NC(C)C)c(=O)n2C[C@H](OC[C@@H](C)C#N)c1cc(F)ccc1OC [Compound I-35] = 0.4 µg/mL
2) CCOC(=O)c1sc2c(c1C)c(=O)n(C(C)(C)C(=O)NC(C)C)c(=O)n2C[C@H](OCCS(C)(=O)=O)c1cc(F)ccc1OC [Compound I-36] = 2 µg/mL
3) CCOC(=O)c1sc2c(c1C)c(=O)n(C(C)(C)C(=O)N1CCCC1)c(=O)n2C[C@H](OC1CCOCC1)c1ccccc1OC [Compound I-3] = 2 µg/mL
4) CCOC(=O)c1sc2c(c1C)c(=O)n(C(C)(C)C(=O)NC(C)C)c(=O)n2C[C@H](OCCC#N)c1cc(F)ccc1OC [Compound I-15] = 0.4 µg/mL

# IC90 (compound: CCOC(=O)c1sc2c(c1C)c(=O)n(C(C)(C)C(=O)N1CCCCC1)c(=O)n2C[C@H](OC(C)C)c1ccccc1OC [Compound I-6] ) is 0.4 µg/mL

Per the records, this compound ( CCOC(=O)c1sc2c(c1C)c(=O)n(C(C)(C)C(=O)NC(C)C)c(=O)n2C[C@H](O)c1cc(F)ccc1OC [Compound I-19] ) has IC90 equal to 0.4 µg/mL

Entry under test: CCOC(=O)c1sc2c(c1C)c(=O)n(C(C)(C)C(=O)NC(C)C)c(=O)n2C[C@H](OC[C@H](C)C#N)c1cc(F)ccc1OC [Compound I-34] . Its IC90 was 0.4 µg/mL
